target: T1, PUF4 RNA-binding domain (Saccharomyces cerevisiae, UniProt P25339 537-888)
T1 sequence: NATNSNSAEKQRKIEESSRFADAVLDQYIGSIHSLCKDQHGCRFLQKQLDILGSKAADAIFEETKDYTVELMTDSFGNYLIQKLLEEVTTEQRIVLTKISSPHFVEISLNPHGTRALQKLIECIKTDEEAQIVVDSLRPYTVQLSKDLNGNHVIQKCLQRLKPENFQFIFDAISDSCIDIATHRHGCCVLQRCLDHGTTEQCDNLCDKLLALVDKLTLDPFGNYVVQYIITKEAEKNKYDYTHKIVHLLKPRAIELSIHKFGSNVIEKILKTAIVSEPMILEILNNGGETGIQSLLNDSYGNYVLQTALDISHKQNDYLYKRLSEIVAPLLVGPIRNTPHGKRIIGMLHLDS
assay.remarks: Mg; RNA-MaP; 20 mM Na-HEPES pH 7.4, 30 mM KOAc, 0.75 mM MgCl2, 0.1% Tween-20, 5% glycerol, 0.1 mg/mL BSA, 2 mM DTT; 25 C; 0.0125-409.6 nM protein
condition.description: tags: N-His6-TEV cleaved; C-SNAP kept, Cy3B-labelled; label: tethered on chip by stalled RNA polymerase

binder: Ic_S4_P4E.1_K4.1_C4.1_H4.1_A4.1_[T5C]_[A6C]_[T7A]_F4.1_T4.1 (ssRNA) RNA: UUUGACAACUGAUCGUUCUUUCUUGUACCAUAUUCUUUCUCGAUCAGUUGUCUUU
units.label: nM
Kd: 0.476
--
binder: Id_ii_S2_P5E.3_K5.2_C5.2_[C-2A]_[T-1C]_H5.2_A5.1_F5.1_T5.2_[T11A]_[A12T] (ssRNA) RNA: UUUGAUUAAUAUGAUAUCGUUCUUUCUACUAUAUUAUUAAUUUCUUUCUCGAUAUCAUAUUAAUCUUU
units.label: nM
Kd: 207
--
binder: UCUCUUAUUAUAUAUUAUCUCUCUU (ssRNA) [Id_ii_S1_P4E.3_K4.2_C4.2_[C-2A]_H4.2_A4.1_F4.1_T4.2_[G10T]_[T11C]]
units.label: nM
Kd: 18.9

This collection of values is drawn from paper PMC9352680.
